Data origin: patent US6544989B2

// reported MELGIN = Meloidogyne incognita, grading of mortality (score) per item
Test system: Meloidogyne incognita
MEASUREMENT PROTOCOL: Nematode test, J2 infective juveniles of Meloidogyne incognita, mortality
ASSAY CONTEXT: 12.5 ppm; J2 infective juveniles suspended in solution; mortality after three days
OBSERVATION TYPE: MELGIN = Meloidogyne incognita, grading of mortality (score)

> print(dat)
                      smiles.representation         assayed.system                       experimental.value
1      CCc1nc2cc(CC(=O)Nc3snc(C)c3Cl)ccc2o1  Meloidogyne incognita  0 (0 indicates less than 40% mortality)
2  Cc1nsc(NC(=S)Cc2ccc3oc(CC(C)(C)C)nc3c2)c1Cl  Meloidogyne incognita  0 (0 indicates less than 40% mortality)
3  Cc1nsc(NC(=O)Cc2ccc3oc(CC(C)C)nc3c2)c1Cl  Meloidogyne incognita  0 (0 indicates less than 40% mortality)
